assay details: BSK_BT_PBMCCytotoxicity: PBMC Cytotoxicity Assessment in the BioMAP Diversity Plus: BT Assay (AID 2284225);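 note: PBMC viability measured by Alamar Blue dye reduction fluorescence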
test settings: primary human B cells with PBMC
Active and inactive are the calls of the source. Rule for the calls: active = hit-call score of the fitted dose curve at least 0.9, where 1 is the maximum; inactive = score below 0.9.
Select the correct class. Options are 1 (yes) = active, 0 (no) = inactive and nothing else.

For orientation, consider the following solved cases.
                                   compound  class_name
0            CCCCC/C=C\C/C=C\CCCCCCCC(=O)OC     1 (yes)
1                   S=C(NC1CCCCC1)NC1CCCCC1      0 (no)
2     C=CC(=O)OCC(Br)CBr (stereo not drawn)     1 (yes)
3  CCOc1nc(F)cc2nc(S(=O)(=O)Nc3c(Cl)cccc3C(=O)OC)nn12      0 (no)
4  C#CC1(O)CC[C@H]2[C@@H]3CCC4=CCCC[C@@H]4[C@H]3CC[C@@]21C (stereo partly drawn)     1 (yes)

Ask: Kindly provide the recorded test outcome for the following compound: "O=Nc1ccc(O)cc1"
Result: 0 (no)

Ask: In this assay, the call recorded for "COc1ccc2nc(N)sc2c1" was what?
Result: 0 (no)

Ask: Dear colleague, could you share the recorded outcome for "CCCCCCCCCCCCCCCC[N+](C)(C)CC" when you have a moment?
Result: 1 (yes)

----------
Read-out: TIMP metallopeptidase inhibitor 2 (TIMP2), TIMP2 (gene 7077)
assay details: BSK_KF3CT_TIMP2: BioMAP Diversity Plus: KF3CT Assay for TIMP metallopeptidase inhibitor 2 (TIMP2) Biomarker Activity (AID 2283071)
test settings: primary human keratinocytes with fibroblasts; actives raise or lower the signal
The source made the active and inactive calls. The calls were made as follows: active = hit-call score of the fitted dose curve at least 0.9, where 1 is the maximum; inactive = score below 0.9.
Pick one: true (1) for active, false (0) for inactive

Ask: Identify the outcome logged in this assay for the molecule shown: "N#[N+]c1ccc2c(S(=O)(=O)[O-])cccc2c1O"
Result: false (0)

Ask: Field: outcome | Entry: "CC(C)(c1cc(Br)c(OCCO)c(Br)c1)c1cc(Br)c(OCCO)c(Br)c1"
Result: true (1)

----------
assay details: ATG_Oct_MLP_CIS: Attagene CIS-FACTORIAL HepG2 Assay for human Octamer-Binding Transcription Factor (Oct) (AID 2282993)
test settings: HepG2 Attagene cis-factorial Oct reporter, mRNA; actives raise or lower the signal
Active and inactive are the calls of the source. How the source made its calls: active means hit-call score of the fitted dose curve at least 0.9, where 1 is the maximum; inactive means score below 0.9.
Bench note: report the call from class 1 for active, class 0 for inactive

Answered examples (3):
In [3]: df
Out[3]:
                                   compound  class_name
0    CCCCNc1ccc(NCCCC)c2c1C(=O)c1ccccc1C2=O     class 0
1            COC(=O)c1ccc2cc(C(=O)OC)ccc2c1     class 0
2  N=c1ccn2c(n1)O[C@H]1[C@H](O)[C@@H](CO)O[C@H]12     class 0

Ask: Hello, I am checking results. What call was entered for "C[C@]12C=CC(=O)C=C1CC[C@@H]1[C@@H]2[C@@H](O)C[C@@]2(C)[C@H]1CC[C@]2(O)C(=O)CO" ?
Result: class 0

Ask: Record lookup: outcome of this test for "CCOC(=O)c1ccccc1C(=C1C=C(Br)C(=O)C(Br)=C1)c1cc(Br)c(O)c(Br)c1" ?
Result: class 1

Ask: For this compound, state the assay outcome: "C[C@]12CCC(=O)C=C1CC[C@@H]1[C@@H]2C(=O)C[C@@]2(C)[C@H]1CC[C@]2(O)C(=O)CO"
Result: class 0

Ask: Which outcome was entered for the compound "O=C1CCCC(=O)O1" in this test?
Result: class 0

Ask: Would you mind telling me which call this test gave "CC=CCO" ?
Result: class 0

Ask: Recorded test call requested for "Cc1ccc2oc(=O)ccc2c1"
Result: class 0

Ask: I'd appreciate the recorded outcome for "O=C(O)Cc1c(Cl)ccc(Cl)c1Cl" from this test.
Result: class 0

Ask: Returns: the outcome recorded for "CC(C)c1ccc(C#N)cc1" in this assay.
Result: class 0

Ask: Assay outcome for O=C(OCC1CCC2OC2C1)C1CCC2OC2C1 (configuration not stated) : what was it?
Result: class 0

Ask: Field: outcome | Entry: "C=CC(=O)OCCC(=O)O"
Result: class 0

Ask: Which outcome was assigned to "SCCc1cnccn1" in this test?
Result: class 0

Ask: # outcome recorded in this test, key = "CC(C)(C)C(=O)C=Cc1ccc(Cl)cc1"
Result: class 1

Ask: Please state the recorded outcome for this compound: "N#[N+]c1ccc2c(S(=O)(=O)[O-])cccc2c1O"
Result: class 0

Ask: Please share the test call associated with "COCc1c(C(C)C)nc(C(C)C)c(/C=C/[C@@H](O)C[C@@H](O)CC(=O)O)c1-c1ccc(F)cc1" .
Result: class 0

Ask: Lab log entry: O=C1C(N(CO)C(=O)NCO)N(CO)C(=O)N1CO (configuration not stated) — outcome as called in the assay?
Result: class 0

Ask: Recorded test outcome, item "C[Si](C)(CCCN)O[Si](C)(C)CCCN"
Result: class 0

Ask: Call for entry "Cc1ccc(OC(=O)CC(C)C)cc1" :
Result: class 0

Ask: So what was the verdict on "Cc1cccc(OCCOc2cccc(C)c2)c1" in this test?
Result: class 0

Ask: Which result was noted for this compound in the test: "CCCCCCCCc1ccc(Nc2ccc(CCCCCCCC)cc2)cc1"
Result: class 0
